Criterion: logP strictly under 3. Met: True. Not met: False.

These recorded examples may help you get a feel for the data.
CCN(CC)CCCC(C)NC(=O)c1ccc([N+](=O)[O-])cc1[N+](=O)[O-] (stereo unspecified) | True
CC(=O)c1cc(F)c(Cl)cc1Cl | False
Cc1nc2ccccc2c(=O)n1CC(=O)NCc1ccco1 | True
Nc1ccc(CNC(=O)C2CCCN2C(=O)C(Cc2ccc(Cl)c(Cl)c2)NS(=O)(=O)Cc2ccccc2)cn1 (stereo unspecified) | False
Cc1cccc(Nc2ccncc2S(=O)(=O)NC(=O)NC(C)C)c1 | False

For the next question, use this molecule.
## Input Input N#Cc1cccc(Cn2ccnc2)c1 ; condition: logP strictly below 3. Does it hold?
## Output True

====

Where a SMILES comes first, the peptide text is derived from it.
Category scheme (logP): LOW: < 1; MID: ≥ 1 and < 3; HIGH: ≥ 3

These recorded examples may help you get a feel for the data.
CCCCOC(NC(=O)c1ccccc1O)C(Cl)(Cl)Cl (stereo unspecified) | HIGH
CC(C)(C)Nc1nc(N)nc(O)n1 | MID
CCCCCCNC(=O)N1C(=O)N(C)CC1O (stereo unspecified) | MID
CC(C)NCC(O)COc1ccc(NC=O)cc1 (stereo unspecified) | LOW
CC(=O)c1ccc(Br)cc1O | HIGH

For the next question, use this compound.
## Input Could you place CC(C)CC(NC(=O)C(Cc1ccccc1)NC(=O)C(N)C(C)C)C(=O)NC(C(=O)O)C(C)O (stereo unspecified) (H-VFLT-OH; configuration not given here) in its proper category? Many thanks.
## Output LOW

====

logP listing for selected molecules.
Please state the value as a number alone, without comment.

Below are worked cases with known answers.
CCCNC1CCc2c(O)cccc2C1C (configuration not stated) | 2.88
CN(C)C(C)(C)CO | 0.29
CC(=NNC(=S)N(C)C)c1cc(C)ccc1O | 2.26

For reference, reported logP for COc1cc2c(cc1OC)C(C=Cc1ccccc1)=NCC2 stands at 3.39

For reference, reported logP for CC(c1ccccc1)N1CC(N2CCOCC2)=NC1=O (configuration not stated) stands at 0.8

For reference, reported logP for CCOC(=O)C1=C(C)NC(C)=C(C(=O)OC(C)C)C1c1cccc2c1OCO2 (configuration not stated) stands at 4.71

For reference, reported logP for Cc1cccn2c1nc1ccc(N)nc12 stands at 1.75

For reference, reported logP for O=S(=O)(NC(=S)NC1CCCCC1)c1cnccc1NC1CCCCCCC1 stands at 5.04

For reference, reported logP for c1ccc(N2CCN(CCCOn3nnc4ccccc43)CC2)cc1 stands at 3.49

For reference, reported logP for CCCCNC(=N)NC(=O)c1ccc(Cl)cc1 stands at 3.08

For reference, reported logP for CCOC(=O)CC(C(=O)OC)S(=O)(=O)c1ccc([N+](=O)[O-])cc1 (configuration not stated) stands at 1.4

For reference, reported logP for CCC(=O)NCCCCCN(O)C(=O)CCC(=O)NCCCCCN(O)C(=O)CCC(=O)NCCCCCN(O)C(C)=O stands at 0.17

====

Where a SMILES comes first, the peptide text is derived from it.
Criterion: logP strictly under 2. Met: t. Not met: f.

CCOP(=O)(OCC)C(C)(C)[N+]([O-])=Cc1ccc([N+](=O)[O-])cc1 | t
COc1ccc(C2Cc3cc(Sc4ccccc4)ccc3N(CCN(C)C)C(=O)C2OC(C)=O)cc1 (stereo not given) | f
ClCC1(C(Cl)Cl)C2CC(Cl)(Cl)C1(C(Cl)Cl)CC2(Cl)Cl (stereo not given) | f
CC(C)CC(NC(=O)C(NC(=O)C(CC(C)C)NC(=O)C(N)C(C)C)C(C)C)C(=O)O (stereo not given) (H-VLVL-OH; configuration not given here) | t
CC(C)NC(=NC#N)NS(=O)(=O)c1cnccc1NC1CCCCCCCCCCC1 | f
NS(=O)(=O)c1ccc(Cn2cnc3ccccc32)cc1 | t

## Input Input O=C(c1c(O)c2ccc(Cl)cc2[nH]c1=O)C1CC1 ; condition: logP strictly below 2. Does it hold?
## Output f

## Input Input O=C1N=C(N2CCOCC2)CN1Cc1ccccc1Cl ; condition: logP strictly below 2. Does it hold?
## Output t

## Input Input CCCC(=NOCC)C1=C(O)CC2(CCC(C)C2)OC1=O (stereo not given) ; condition: logP strictly below 2. Does it hold?
## Output f

## Input Input NC1=NCC(COc2cccc(C(F)(F)F)c2)O1 (stereo not given) ; condition: logP strictly below 2. Does it hold?
## Output f

====

logP listing for selected compounds.
Please state the value as a number alone, without comment.

Below are worked cases with known answers.
OCCCCCCCCNc1[nH]cnc2ncnc1-2 | 2.23
Nc1nc(N)c2c(N3CCCCC3)cccc2n1 | 2.66
CC(=O)OC(C)(C)C1CCC2(C)CCCC(C)(O)C2C1 (centres undefined) | 3.8
CC(NC(=O)C(N)Cc1c[nH]c2ccccc12)C(=O)O (centres undefined) | -1.98
Cc1nc2c3c(c(C(=O)N4CCC4)cn2c1C)CCC(c1ccccc1)O3 (centres undefined) | 3.4

For reference, reported logP for O=c1cc(-c2ccc(Cl)cc2)oc2ccccc12 stands at 3.89

For reference, reported logP for Brc1cc(Br)c2ccc3cccc4ccc1c2c43 stands at 6.85

For reference, reported logP for CC(=O)NCCCCCN(O)C(=O)CCC(=O)NCCCCCN(O)C(=O)CCC(=O)NCCCCCN(O)C(C)=O stands at -0.03

For reference, reported logP for NC(=S)NN=C(c1ccccc1)c1ccccn1 stands at 1.92

For reference, reported logP for O=C1c2cc(Cl)ccc2OCN1CCO[N+](=O)[O-] stands at 2.3

====

Measured endpoint: logP
Please state the value as a number alone, without comment.

Below are worked cases with known answers.
CC(C)C(Nc1ccc([N+](=O)[O-])cc1[N+](=O)[O-])C(=O)O (configuration not stated) | 2.88
CCC(C)C(NC(=O)C(Cc1ccc(O)cc1)NC(=O)C(C)N)C(=O)O (configuration not stated) | -2.04
O=C(O)C1CSC(c2cc(O)ccc2O)=N1 (configuration not stated) | 0.9

For reference, reported logP for OC(CNCC1COc2ccccc2O1)CON=C(C1CC1)C1CC1 (configuration not stated) stands at 2.22

For reference, reported logP for Cc1cc2c(s1)Nc1ccccc1N=C2N1CCN(C)CC1 stands at 3

For reference, reported logP for N#Cc1cccc(Cc2ncccn2)c1 stands at 1.46

For reference, reported logP for COc1cc(Cl)ccc1O stands at 2.15

====

Where a SMILES comes first, the peptide text is derived from it.
Measured endpoint: logP

For reference, reported logP for CCC(C)C(N)C(=O)NC(C)C(=O)NC(Cc1ccc(O)cc1)C(=O)NC(Cc1c[nH]c2ccccc12)C(=O)NCC(=O)O (centres undefined) (H-IAYWG-OH; configuration not given here) stands at -1.47

For reference, reported logP for COC1=C(Cl)C(=O)c2ccccc2C1=O stands at 2.15

For reference, reported logP for CC(C)n1cccc(O)c1=O stands at 0.79

For reference, reported logP for Cc1ncc([N+](=O)[O-])n1CCN=[N+]=[N-] stands at 0.76

For reference, reported logP for CCOC(=O)C1=C(C)NC(C)=C(C(=O)OC)C1c1cc(OC)c(OC)c(OC)c1 (centres undefined) stands at 3.39

For reference, reported logP for O=C1c2ccccc2-c2nnc(-c3ccccc3O)cc21 stands at 3.15

For reference, reported logP for C[C@]12CC[C@@H](O)C[C@@H]1CC[C@@H]1[C@@H]2CC[C@]2(C)[C@@H](O)CC[C@@H]12 stands at 4.16

For reference, reported logP for C/C(=C\CNc1ncnc2[nH]cnc12)CO stands at 0.6

For reference, reported logP for CCCN(CCC)C1CCc2c(OC)cccc2C1C (centres undefined) stands at 4.76

For reference, reported logP for CC1(C)N(O)C(c2ccc([N+](=O)[O-])cc2)=[N+]([O-])C1(C)C stands at 1.68

For reference, reported logP for CCCSCc1cc(=O)c(O)co1 stands at 1.32

For reference, reported logP for CCC(=O)Nc1ccc2cc3ccc(N)c(CO)c3nc2c1 stands at 1.55

For reference, reported logP for CCCC(=NOCC)C1=C(O)CC(c2ccccc2)(c2ccccc2)OC1=O stands at 4.75

For reference, reported logP for CC1(C)C2Cc3ssc(=S)c3C1C2 (centres undefined) stands at 3.7

For reference, reported logP for Cc1ccc(C(=O)NN=Cc2c(CO)ccc(C)c2O)cc1 stands at 3.39

For reference, reported logP for C#CCNc1nc(CCC)nc(N2CCOCC2)n1 stands at 2.3

For reference, reported logP for CCOC1N=C(c2ccccc2)c2cc(Cl)ccc2N(CCCl)C1=O (centres undefined) stands at 3.95
